- system_under_test: recombinant human neuronal calcium channel α1B-2α2bβ1-3 (human), Q00975
- experiment_summary: 125I-ω-CgTx GVIA saturation binding to transiently transfected HEK293 cells
property_label: Kd (nM)
# value in nM; strip the unit string

What measured Kd goes with CKSPGSSCSPTSYNCCRSCNPYTKRCYG (modifications not checked) [125I-ω-CgTx GVIA, P01522 46-73] ?
0.0443

Provenance of the data: patent US20070244297A1
